Test system: ryegrass, Italian (Italian ryegrass, Lolium multiflorum)
Test: Test A preemergence
Type: in vivo
Details: Lolium multiflorum, pre-emergence, 240 h, Preemergence, 125 g ai/ha; 0 to 100 scale (0 no effect, 100 complete control); read-out: Plant response rating, Ryegrass, Italian
READOUT_LABEL: pest or weed control at 125 g/ha (%)
Dear colleague, please return just the value in %, with no unit written.

- SAMPLE_SMILES: "O=C1NC[C@H](c2cncs2)[C@H]1C(=O)Nc1ccccc1F"
  MEASUREMENT_UNITS: "%"
  pest or weed control at 125 g/ha: 0
- SAMPLE_SMILES: "N#Cc1cc([C@H]2CNC(=O)[C@]2(O)C(=O)Nc2cccc(F)c2F)ccc1F"
  MEASUREMENT_UNITS: "%"
  pest or weed control at 125 g/ha: 0
- SAMPLE_SMILES: "CN1C[C@H](c2ccc(C(F)(F)F)cc2)[C@@H](C(=O)Nc2cccc(C#N)c2F)C1=O"
  MEASUREMENT_UNITS: "%"
  pest or weed control at 125 g/ha: 30
- SAMPLE_SMILES: "CSc1ccccc1NC(=O)[C@H]1C(=O)N(C)C[C@@H]1c1ccc(F)c(C)c1"
  MEASUREMENT_UNITS: "%"
  pest or weed control at 125 g/ha: 60
- SAMPLE_SMILES: "CN1C[C@H](c2ccc3c(c2)OC(F)(F)O3)[C@@H](C(=O)Nc2ccc(F)nc2F)C1=O"
  MEASUREMENT_UNITS: "%"
  pest or weed control at 125 g/ha: 30
- SAMPLE_SMILES: "Cc1cc(F)cc([C@H]2CNC(=O)[C@@H]2C(=O)Nc2cccc(F)c2F)c1"
  MEASUREMENT_UNITS: "%"
  pest or weed control at 125 g/ha: 0

--- query ---
Entry CN1C[C@H](c2ccc(C(F)(F)F)cc2)[C@@H](C(=O)Nc2cccnc2F)C1=O , system ryegrass, Italian (Italian ryegrass, Lolium multiflorum): what pest or weed control at 125 g/ha was measured? 40

====

System: ragweed (common ragweed, Ambrosia elatior)
Assay: Test A postemergence
Assay type: in vivo
Details: 500 g ai/ha, postemergence; 0 to 100 scale, 0 no effect, 100 complete control
READOUT_LABEL: Plant response rating, Ragweed
The answer should be written as a number, with no unit following it.

Examples with answers:
- COMPOUND: "CC(=O)c1ccccc1NC(=O)C1C(=O)NCC1c1ccc(F)c(F)c1 (stereo not drawn) [Compound 418]"
  TARGET_ENTITY: "ragweed (common ragweed, Ambrosia elatior)"
  Plant response rating, Ragweed: 0
- COMPOUND: "Cc1ccc(C2CNC(=O)C2C(=O)Nc2ccc(F)cc2F)cc1F (racemic) [Compound 370]"
  TARGET_ENTITY: "ragweed (common ragweed, Ambrosia elatior)"
  Plant response rating, Ragweed: 50
- COMPOUND: "CN1CC(c2cccc(OC(F)(F)C(F)F)c2)C(C(=O)Nc2cccc(F)c2F)C1=O (stereo not drawn) [Compound 392]"
  TARGET_ENTITY: "ragweed (common ragweed, Ambrosia elatior)"
  Plant response rating, Ragweed: 20
- COMPOUND: "COc1ccc(NC(=O)C2C(=O)NCC2c2ccc(F)c(F)c2)c(F)c1 (stereo not drawn) [Compound 413]"
  TARGET_ENTITY: "ragweed (common ragweed, Ambrosia elatior)"
  Plant response rating, Ragweed: 0
- COMPOUND: "O=C1NCC(c2cccc(F)c2)C1C(=O)Nc1cccc(F)c1F (racemic) [Compound 375]"
  TARGET_ENTITY: "ragweed (common ragweed, Ambrosia elatior)"
  Plant response rating, Ragweed: 20

Entry CN1CC(c2ccc3c(c2)OC(F)(F)O3)C(C(=O)Nc2ccccc2S(C)(=O)=O)C1=O (stereo not drawn) [Compound 443] , system ragweed (common ragweed, Ambrosia elatior): what Plant response rating, Ragweed was measured? 20
